- System: human PXR (Homo sapiens, UniProt O75469)
- Construct: The GAL4-NR chimeric cell lines provide uniform cellular model differing just in receptor LBDs; expressed in transfected cells; host or cells: HG5LN PXR (HeLa-derived; described in Delfosse et al., 2015)
- Sequence (O75469 146-433 limits assumed): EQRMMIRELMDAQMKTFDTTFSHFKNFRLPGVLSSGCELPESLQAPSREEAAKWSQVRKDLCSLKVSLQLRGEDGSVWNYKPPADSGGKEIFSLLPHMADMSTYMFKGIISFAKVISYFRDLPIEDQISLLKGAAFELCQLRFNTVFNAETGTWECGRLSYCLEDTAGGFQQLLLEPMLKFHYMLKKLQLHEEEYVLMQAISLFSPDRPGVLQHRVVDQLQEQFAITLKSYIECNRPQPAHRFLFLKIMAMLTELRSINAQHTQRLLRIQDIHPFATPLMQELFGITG
- Measurement description: HG5LN PXR reporter cell line, agonist mode
- Type: cell-based
- Reported conditions: HG5LN PXR cells; rounded value; read-out: EC50 for PXR
Assay endpoint: EC50 (nM)
Kindly answer with a numeric value in nM, unit omitted.

[ask] GET /values?readout=EC50&system=human PXR (Homo sapiens, UniProt O75469)&item= Clc1ccc(-c2nc3sccn3c2/C=N/OCc2ccc(Cl)c(Cl)c2)cc1
[reply] 1300
